The values you see were collected from patent US20180057596A1.

Biological target: T1, human IL4Rα/Fc (R and D Systems 604-4R) (human, UniProt P24394 26-231, limits assumed, biotin labelled in the assay of Example 5)
T1 construct: bought protein; also called IL-4Rα/Fc (R&D systems Cat. No. 604-4R-050); not shown: Fc part of the bought fusion
T1 sequence (looked up): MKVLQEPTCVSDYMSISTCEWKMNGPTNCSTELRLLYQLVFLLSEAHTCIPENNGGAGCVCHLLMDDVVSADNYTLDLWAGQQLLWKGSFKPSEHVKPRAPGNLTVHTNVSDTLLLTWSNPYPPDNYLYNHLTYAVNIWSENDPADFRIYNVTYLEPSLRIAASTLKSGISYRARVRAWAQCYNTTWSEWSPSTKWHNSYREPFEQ
Experiment: HTRF receptor-ligand assay, purified scFv against biotinylated human IL4
Task for the reader: assign each of the following binders its reported Ki.
One number for each entry, in nM.

Example cases with answers are listed next.
binder="Antibody 9 scFv (scFv, V domains shown, tested as purified scFv) VH: QVQLVQSGAEVKKPGASVKVSCKASGYAFTSYYMHWARQAPGQGLEWMGIINPSGGSTSYAQKFQGRVTMTRDTSTSTVYMELSSLRSEDTAVYYCARGKWWLYNWGKGTLVTVSS VL: QSVLTQPPSVSAAPGQKVTISCSGGSSNIGNSYVSWYQQLPGTAPKLLIYDNNKRPSGIPDRFSGSKSGTSATLAITGLQTGDEADYYCGTWDTSTTMYPLFGTGTKLTVL" measurement_type=Ki reported_value=0.1
binder="Antibody 37 scFv (scFv, V domains shown, tested as purified scFv) VH: QVQLVQSGAEVKKPGASVKVSCKASGYAFTSYYMHWARQAPGQGLEWMGIINPRGGSTSYAQKFQGRVAMTRDTSTSTVYMELSSLRPEDTAVYYCARGKYWMYDWGKGTLVTVSS VL: QSVLTQPPSVSAAPGQKVTISCSGGGSSIGNSYVSWYQQLPGTAPKLLIYDNNKRPSGVPDRFSGSKSGTSATLAITGLQTGDEADYYCGTWDTSPVWEWPFGTGTKLTVL" measurement_type=Ki reported_value=0.04

Then there is this binder:
Fill in the blank: the reported Ki of Antibody 15 scFv (scFv, V domains shown, tested as purified scFv) VH: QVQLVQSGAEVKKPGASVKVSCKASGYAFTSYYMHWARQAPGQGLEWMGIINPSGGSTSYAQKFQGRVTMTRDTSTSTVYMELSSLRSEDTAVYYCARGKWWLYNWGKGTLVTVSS VL: QSVLTQPPSVSAAPGQKVTISCSGGSSNIGNSYVSWYQQLPGTAPKLLIYDNNKRPSGIPDRFSGSKSGTSATLAITGLQTGDEADYYCGTWDTSTHRHPLFGTGTKLTVL is ____.
1
